The entries below are paired with their reported pIC50.
System: transient sodium currents
Test: IonWorks automated patch clamp, whole-cell voltage clamp
Format: cell-based
Details: inhibition of transient sodium currents, read-out: IW IC50
Description: To determine the selectivity of effects of these compounds on the persistent current, the inhibition of transient sodium currents using an automated patch clamp was also tested for the compounds. For direct measurement of Na+ currents the IonWorks automated patch clamp system was used. The IonWorks system is a high-throughput electrophysiological instrument that performs whole-cell voltage clamp recordings in a 384-well plate format.
pIC50: −log10 of the molar value.
quantity: pIC50

INSERT INTO results (compound, result) VALUES
  ('Cc1cccc(OCCn2c(CN3CCOCC3)nc3ccccc32)c1C', '< 4.52'),
  ('Cc1cccc(C)c1OCCCn1c(CN2CCOCC2)nc2ccccc21', '< 4.52'),
  ('CCn1c(C(C)N2CCCCC2)nc2ccccc21 (centres unmarked)', '< 4.52'),
  ('Cc1cccc(C)c1OCCn1c(CN2CCCCC2)nc2ccccc21', '< 4.52'),
  ('Cc1ccccc1OCCn1c(CN2CCCCC2)nc2ccccc21', '< 4.52'),
  ('Cc1ccc(OCCn2c(CN3CCCCC3)nc3ccccc32)cc1', '< 4.52'),
  ('Cc1ccc(OCCn2c(CN3CCOCC3)nc3ccccc32)c(C)c1', '< 4.52'),
  ('Cc1cccc(C)c1OCCn1c(CN2CCOCC2)nc2ccccc21', '< 4.52'),
  ('COc1cccc(OCCn2c(CN3CCCCC3)nc3ccccc32)c1', '< 4.52'),
  ('Clc1ccc(OCCn2c(CN3CCCCC3)nc3ccccc32)cc1', 4.56),
  ('Cc1cccc(OCCn2c(CN3CCCCC3)nc3ccccc32)c1C', 4.86);
